Entries and their Fortebio binding to PD-1-Fc Response Units (Response Units)
- TARGET OR TEST SYSTEM: PD-1-Fc (Homo sapiens)
- Sequence (chain, as listed by the source limits assumed): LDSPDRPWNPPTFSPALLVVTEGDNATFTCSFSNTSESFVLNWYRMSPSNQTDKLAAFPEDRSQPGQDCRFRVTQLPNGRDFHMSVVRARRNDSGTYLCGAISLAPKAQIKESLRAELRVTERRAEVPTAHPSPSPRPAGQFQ
- MEASUREMENT DESCRIPTION: ForteBio, PD-1-Fc
Please reply with the number alone, leaving off any unit.

Recorded Fortebio binding to PD-1-Fc Response Units (Response Units), per entry:
BINDER: variant PD-L2 IgV-Fc I13V, E44D, Q82R, V89D (Fc fusion) LFTVTVPKELYIVEHGSNVTLECNFDTGSHVNLGAITASLQKVDNDTSPHRERATLLEEQLPLGKASFHIPQVQVRDEGQYRCIIIYGDAWDYKYLTLKVKA
READOUT VALUE: 1.28

BINDER: variant PD-L2 IgV-Fc S67L, I85F (Fc fusion) LFTVTVPKELYIIEHGSNVTLECNFDTGSHVNLGAITASLQKVENDTSPHRERATLLEEQLPLGKALFHIPQVQVRDEGQYQCIFIYGVAWDYKYLTLKVKA
READOUT VALUE: -0.005

What measured Fortebio binding to PD-1-Fc Response Units (Response Units) goes with variant PD-L2 IgV-Fc I13V, H15Q, T37A, E44D, S48C, S67L, Q82R, V89D (Fc fusion) LFTVTVPKELYIVEQGSNVTLECNFDTGSHVNLGAIAASLQKVDNDTCPHRERATLLEEQLPLGKALFHIPQVQVRDEGQYRCIIIYGDAWDYKYLTLKVKA ? 1.25

Try the binder variant PD-L2 IgV-Fc H15Q, Q82R, V89D (Fc fusion) LFTVTVPKELYIIEQGSNVTLECNFDTGSHVNLGAITASLQKVENDTSPHRERATLLEEQLPLGKASFHIPQVQVRDEGQYRCIIIYGDAWDYKYLTLKVKA 1.2
